procedure.text: modulators of CIT2-GFP expression in yeast, confirmation, S. cerevisiae, GFP fusion, cherry picks, mother/daughter gates (AID 2274)
stated.conditions: S. cerevisiae CIT2-GFP strain, flow cytometry, 3 h; measured here: daughter cell gate; at 10 µM; stronger effect = higher value
measure: GFP response, % of DMSO (%)

> print(dat)
                                 cpd.smiles                  measure  meas.value
1            CCOC(=O)N/C(N)=N/c1nc2ccccc2s1  GFP response, % of DMSO        86.7
2        CCOC(=O)c1csc(Nc2nc3ccc(F)cc3s2)n1  GFP response, % of DMSO        97.4
3    Cc1ccc(/C(C#N)=C\c2ccc(N3CCOCC3)o2)cc1  GFP response, % of DMSO        99.2
4  O=C(COC(=O)c1n[nH]c2ccccc12)c1cc(F)ccc1F  GFP response, % of DMSO        96.5
5  S=c1[nH]nc(-c2ccco2)n1/N=C/C(Cl)=C/c1ccccc1  GFP response, % of DMSO         100
6   Cc1cc(-n2nc(C)cc2C)n2ncc(-c3ccccc3)c2n1  GFP response, % of DMSO        95.6
7    C/C(=N\NC(=O)c1cccc(Br)c1)c1ccc(Br)cc1  GFP response, % of DMSO         101
8  Cc1cc(=O)n2c3c(sc2n1)C(=O)N(Cc1ccccc1)C3=O  GFP response, % of DMSO        87.3
9                 CCCCCCCCC/C(=N\O)c1ccccn1  GFP response, % of DMSO        90.5
